Entries annotated with measured IC50 at 72 h
Test: Cytotoxicity against mouse HT-22 cells incubated for 72 hrs by MTT assay
Format: toxicity, cell-based

compound	IC50 at 72 h (µg/mL)
CC[C@H]1OC(=O)C[C@@H](O)[C@H](C)[C@@H](O[C@@H]2O[C@H](C)[C@@H](O)[C@H](N(C)C)[C@H]2O)[C@@H](CCN2CCCCC2)C[C@@H](C)C(=O)/C=C/C(C)=C/[C@@H]1CN1CCCCC1 [TILDIPIROSIN]	114
CC[C@H]1OC(=O)C[C@@H](O)[C@H](C)[C@@H](O[C@@H]2O[C@H](C)[C@@H](O)[C@H](N(C)C)[C@H]2O)[C@@H](CCN(C)Cc2cn(-c3cnc4ccccc4c3)nn2)C[C@@H](C)C(=O)/C=C/C(C)=C/[C@@H]1CNCc1cccc(C)c1	130
